# target_under_test: α1A Human Adrenergic Receptor (Homo sapiens, UniProt P25100)
# Construct: The entire coding region of α1A (1719 bp); expressed in transfected cells
# Sequence (P25100 whole entry): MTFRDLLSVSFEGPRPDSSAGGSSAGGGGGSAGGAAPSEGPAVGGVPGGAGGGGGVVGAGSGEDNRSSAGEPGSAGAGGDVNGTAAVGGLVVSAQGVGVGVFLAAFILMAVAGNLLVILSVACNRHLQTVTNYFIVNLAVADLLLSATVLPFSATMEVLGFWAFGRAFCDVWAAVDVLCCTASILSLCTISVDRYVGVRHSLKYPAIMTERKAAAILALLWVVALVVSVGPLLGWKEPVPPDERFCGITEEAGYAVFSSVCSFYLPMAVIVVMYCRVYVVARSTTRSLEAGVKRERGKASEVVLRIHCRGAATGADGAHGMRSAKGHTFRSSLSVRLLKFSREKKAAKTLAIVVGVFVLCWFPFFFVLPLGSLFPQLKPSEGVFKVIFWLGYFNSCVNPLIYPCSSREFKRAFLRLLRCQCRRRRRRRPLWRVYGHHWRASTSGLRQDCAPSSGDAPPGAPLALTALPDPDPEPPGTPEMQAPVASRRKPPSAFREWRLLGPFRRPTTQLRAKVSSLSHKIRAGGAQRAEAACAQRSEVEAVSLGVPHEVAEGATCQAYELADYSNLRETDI
# method_summary: Radioligand binding, [3H]prazosin, cloned human α1A adrenergic receptor
# conditions_used: [3H]prazosin, cloned human receptor in LM(tk-) cell membranes; SEM and n in lines below; read-out: pKi alpha-1 1a (converted)
Counter-ions that a name gives are not always drawn.
Field: Ki. Provide a value for each of the molecules that follow.
Give the number; nM is assumed, so skip it.

Inquiry: Give recorded Ki. COC(=O)C1=C(C)NC(C)=C(C(=O)OCCCN2CCC(c3ccccc3)CC2)C1c1ccc([N+](=O)[O-])cc1 (stereo not shown) [Example 48, hydrochloride hydrate]
Reply text: 9.77

Inquiry: State its Ki: COC(=O)C1=C(C)NC(C)=C(C(=O)NCCCN2CCCCC2)C1c1ccc([N+](=O)[O-])cc1 (stereo not shown)
Reply text: 9770

Inquiry: State its Ki for this molecule: COC(=O)C1=C(C)NC(C)=C(C(=O)NCCCN2CCC(c3ccccc3)CC2)C1c1ccc([N+](=O)[O-])cc1 (racemic) [(±)-45, hydrochloride hemihydrate]
Reply text: 66.1

Inquiry: Determine its reported Ki: COC(=O)C1=C(C)NC(C)=C(C(=O)OCCCN2CCCCC2)C1c1ccc([N+](=O)[O-])cc1 (stereo not shown)
Reply text: 1950
